- protocolText: M. tuberculosis growth inhibition, HTS (AID 449762);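 note: bacterial growth assessed after seven days of incubation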
- experimentalSetup: M. tuberculosis H37Rv growth inhibition, 7H9 media; at 25 µM; hits give high values
The campaign covered roughly 330,000 compounds. About 1,900 (0.58%) were called active. About 4% were inconclusive and are not listed. Not all results are given here. Measured potencies and affinities stand elsewhere.
Reported inhibition by item:

# querySmiles, inhibition
rows = [
    ("CCCCN1C(=N)N([C@@H](CCC)CN2CCC[C@H]2CN2C(N)=NC[C@H]2C(C)C)C[C@H]1[C@H](C)CC", "1.37% (inactive)"),
    ("COc1ccc(CNC(=O)[C@@H]2CC=C[C@@H]3CCN(Cc4ccc(Cl)c(Cl)c4)C(=O)[C@@H]32)cc1", "18.4% (inactive)"),
    ("Cc1cccc(NC(=O)c2nc[nH]c2C(=O)N(C)Cc2ccccc2)c1", "27.5% (inactive)"),
    ("COC(=O)c1ccc(N2CCN(c3ccccc3)CC2)nc1", "-3.88% (inactive)"),
    ("FC(F)(F)c1ccc(-n2cnc3ccccc32)nc1", "-0.78% (inactive)"),
    ("COc1ccc(OCCCCN(C)Cc2ccccc2)cc1", "13.7% (inactive)"),
    ("O=C1/C(=C/c2ccc([N+](=O)[O-])cc2)C=C(c2ccccc2)N1c1ccccc1", "10.5% (inactive)"),
    ("Fc1ccc(-c2cc3nc(-c4ccccc4)cc(N4CCOCC4)n3n2)cc1", "-0.86% (inactive)"),
    ("CCOC(=O)N1CCc2c(sc(NC(=O)C3=COCCO3)c2C(N)=O)C1", "-6.06% (inactive)"),
    ("O=C(/C=C/c1c(F)cccc1Cl)c1ccc(O)cc1", "-0.9% (inactive)"),
]

---

- protocolText: M. tuberculosis growth inhibition, HTS (AID 449762);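 note: bacterial growth assessed after seven days of incubation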
- experimentalSetup: M. tuberculosis H37Rv growth inhibition, 7H9 media; at 25 µM; hits give high values
About 1,900 (0.58%) of roughly 330,000 compounds were called active. Not shown: some 4% with an inconclusive outcome. The list is a sample of the results. Results with a measured potency or affinity are listed apart.

# querySmiles, inhibition (%)
rows = [
    ("Brc1ccc2nc(N3CCN(c4ccccc4)CC3)sc2c1", -4.96),
    ("Brc1cccc2sc(N3CCCC3)nc12", 6.95),
    ("O=S(=O)(Nc1ccccc1N1CCOCC1)c1c(F)cc(F)cc1Br", -10.8),
    ("COc1ccc(N2C(=O)/C(=C/c3cc(C)n(-c4ccc(C)cn4)c3C)C(=O)NC2=S)c(OC)c1", 3.48),
    ("Cc1ccc(-c2nnc(NCc3nc4ccccc4[nH]3)c3ccccc23)cc1S(=O)(=O)N(C)C", -2.52),
    ("Cc1cc(C(C)(C)C)oc1C(=O)OCC(=O)NC1CCCCC1", 7.47),
]

---

Reported inhibition by item:
- protocolText: M. tuberculosis growth inhibition, HTS (AID 449762);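 note: bacterial growth assessed after seven days of incubation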
- experimentalSetup: M. tuberculosis H37Rv growth inhibition, 7H9 media; at 25 µM; hits give high values
Out of some 330,000 compounds screened, about 1,900 (0.58%) were called active. Another 4% or so got no clear call; they are omitted. A selection follows. Results with a measured potency or affinity are listed apart.
recordedEndpoint: inhibition (%)

# compound, testResult
measured = [
    ("COc1ccccc1-n1cc2ccc([N+](=O)[O-])cc2n1", -3.35),
    ("Cc1c(C(=O)NC(C(C)C)C(C)C)cccc1[N+](=O)[O-]", -0.36),
    ("O=C(Nc1nc2c(s1)CCCC2)c1cc(-c2ccncc2)nc2ccccc12", -5.59),
    ("O=C(NCCCSc1ccccc1)c1cccnc1", 2.65),
    ("O=c1cccc2n1C[C@@H]1C[C@@H]2CN(CC(O)c2ccc([N+](=O)[O-])cc2)C1 (some centres not stated)", 9.8),
    ("O=c1c2c([N+](=O)[O-])cc([N+](=O)[O-])cc2nc2ccccn12", 4.66),
    ("Cc1cc2cc(CNC(=S)Nc3ccc(OC(F)(F)F)cc3)ccc2n1C", -4.09),
    ("O=C(Nc1nc2c(s1)CCCC2)c1cc(-c2ccccc2)nc2ccccc12", 65.5),
    ("CCOC(=O)C1CCCN(S(=O)(=O)c2ccc(-c3cc(C)no3)s2)C1 (configuration not stated)", 3.93),
    ("O=C(O)Cn1ccc2ccccc21", -3.21),
    ("Cc1cc(SCC(=O)NCCN2C(=O)CSC2=O)nc2c(C)cccc12", 4.1),
    ("Cc1ccc(-n2[nH]c(C)c(C=Nc3ccc(S(=O)(=O)Nc4nc(C)cc(C)n4)cc3)c2=O)c(C)c1", -3.23),
    ("Cc1occc1-c1nnc(SCC(=O)NC2CC2)n1C(C)C", 6.3),
    ("O=C(Cc1ccc([N+](=O)[O-])cc1)Nc1ccc(Cl)cc1", -3.64),
    ("Cc1ccc(NS(=O)(=O)c2c(C)[nH]c(C)c2C(=O)N2CCCC2)cc1", 2.46),
    ("COc1ccc(C(=O)NN=C2CCCC2)c(OC)c1", -0.32),
    ("CC(=O)C1=C(O)C(=O)N(c2cccc(Br)c2)C1c1ccc(Br)cc1 (configuration not stated)", 1.06),
    ("CCN(CC)S(=O)(=O)c1cccc(-c2n[nH]c(=S)n2CC(C)C)c1", 4.49),
    ("COc1cccc(NC(=O)Nc2cc(C(=O)O)ccc2C)c1", 16.4),
    ("Cc1ccc(S(=O)(=O)N(C)c2ccc(C(=O)Nc3ccccn3)cc2)cc1", 27.5),
    ("CC(C)(C)OC(=O)N[C@@H](Cc1ccccc1)C(=O)N1CCC(C(=O)NCC(=O)O)CC1", -2.02),
    ("Cc1[nH]n(-c2ccc(Br)cc2)c(=O)c1C=Nc1ccc(S(=O)(=O)Nc2nccs2)cc1", 68.2),
]

---

- protocolText: M. tuberculosis growth inhibition, HTS (AID 449762);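 note: bacterial growth assessed after seven days of incubation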
- experimentalSetup: M. tuberculosis H37Rv growth inhibition, 7H9 media; at 25 µM; hits give high values
In all, about 330,000 compounds went through this assay and about 1,900 (0.58%) were called active. Not shown: some 4% with an inconclusive outcome. A selection follows. Results with a measured potency or affinity are listed apart.
recordedEndpoint: inhibition (%)

# compound, testResult
measured = [
    ("O=C(O)CCCCCN1C(=O)CSC1=S", -1.88),
    ("Cc1cc(C)cc(C(=O)O/N=C(\\N)c2ccc(Br)cc2)c1", 2.33),
    ("CSCCC(NS(=O)(=O)c1ccc(Cl)cc1)C(=O)OCC(=O)NC1CCCCC1 (stereo unspecified)", 1.43),
    ("NC(=O)C1CCN(C(=O)c2ccc(-c3ccccc3Cl)o2)CC1", -1.57),
    ("CC1CCCN(C(=O)c2ccc(-c3ccccc3Cl)o2)C1 (stereo unspecified)", 27.8),
    ("O=C(O)CN1C(=O)CSC1=S", 3.79),
    ("CCC1(c2ccc(F)cc2)NC(=O)N(CC(=O)N2c3ccccc3NC(=O)C2(C)C)C1=O (stereo unspecified)", 1.45),
    ("Clc1ccc(N2CCNCC2)nn1", -10.1),
    ("COc1ccc(O)c(C(=O)c2cnn(C(=O)c3cccc(S(=O)(=O)N4CCOCC4)c3)c2)c1", -2.2),
    ("Cc1cc(C)cc(NC(=S)N2CCC(NC(=O)C3CCCCC3)CC2)c1", -1.01),
    ("NS(=O)(=O)c1cccc(NC(=O)CCS(=O)(=O)c2ccc(Cl)cc2)c1", -6.68),
]

---

- protocolText: M. tuberculosis growth inhibition, HTS (AID 449762);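 note: bacterial growth assessed after seven days of incubation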
- experimentalSetup: M. tuberculosis H37Rv growth inhibition, 7H9 media; at 25 µM; hits give high values
The whole screen tested about 330,000 compounds, of which about 1,900 (0.58%) were called active. Not shown: some 4% with an inconclusive outcome. A selection follows. Entries with a potency or affinity are not part of this list.

# molecule, readoutUnits, inhibition
records = [
    ("CCCCNC(=O)c1c(C)cc(=O)oc1C", "%", -6.73),
    ("Cc1ccc(-c2nn(-c3ccccc3)cc2C=C2C(=O)CC(C)(C)CC2=O)cc1", "%", 28.4),
    ("COc1ccc(CCNCC2C(Oc3ccc(Cl)cc3)C(=O)N2c2ccccc2C)cc1OC (stereo not given)", "%", 11.7),
    ("O=C(CN(Cc1cccs1)C(=O)CN1C(=O)COc2ccccc21)NCc1ccco1", "%", -10.2),
    ("CCCc1cc(NC(=O)COC(=O)c2ccc(O)cc2O)n(-c2ccccc2)n1", "%", -2.82),
    ("COc1cc(O)c(C(CCN2CCCC(C)C2)c2cc(OC)c(OC)c(OC)c2)c(OC)c1 (stereo not given)", "%", -1.23),
    ("O=C(Cc1ccc(F)cc1)N(c1ccccc1)C1C=CS(=O)(=O)C1 (stereo not given)", "%", -6.47),
    ("COc1cc(OC)c(OC)cc1CCC(C)NC(=O)Cc1ccccc1 (stereo not given)", "%", 2.6),
    ("CCCc1cc(NC(=O)COC(=O)c2nccnc2N)n(-c2ccccc2)n1", "%", 50.9),
    ("O=C1CCN(CCc2ccccc2)CCN1[C@H](CSc1ccccc1)c1ccccc1", "%", 21.9),
]

These measurements were taken from PubChem BioAssay AID449762.
